- test.target: Xanthine dehydrogenase/oxidase (Homo sapiens, UniProt P47989)
- Sequence (P47989 whole entry): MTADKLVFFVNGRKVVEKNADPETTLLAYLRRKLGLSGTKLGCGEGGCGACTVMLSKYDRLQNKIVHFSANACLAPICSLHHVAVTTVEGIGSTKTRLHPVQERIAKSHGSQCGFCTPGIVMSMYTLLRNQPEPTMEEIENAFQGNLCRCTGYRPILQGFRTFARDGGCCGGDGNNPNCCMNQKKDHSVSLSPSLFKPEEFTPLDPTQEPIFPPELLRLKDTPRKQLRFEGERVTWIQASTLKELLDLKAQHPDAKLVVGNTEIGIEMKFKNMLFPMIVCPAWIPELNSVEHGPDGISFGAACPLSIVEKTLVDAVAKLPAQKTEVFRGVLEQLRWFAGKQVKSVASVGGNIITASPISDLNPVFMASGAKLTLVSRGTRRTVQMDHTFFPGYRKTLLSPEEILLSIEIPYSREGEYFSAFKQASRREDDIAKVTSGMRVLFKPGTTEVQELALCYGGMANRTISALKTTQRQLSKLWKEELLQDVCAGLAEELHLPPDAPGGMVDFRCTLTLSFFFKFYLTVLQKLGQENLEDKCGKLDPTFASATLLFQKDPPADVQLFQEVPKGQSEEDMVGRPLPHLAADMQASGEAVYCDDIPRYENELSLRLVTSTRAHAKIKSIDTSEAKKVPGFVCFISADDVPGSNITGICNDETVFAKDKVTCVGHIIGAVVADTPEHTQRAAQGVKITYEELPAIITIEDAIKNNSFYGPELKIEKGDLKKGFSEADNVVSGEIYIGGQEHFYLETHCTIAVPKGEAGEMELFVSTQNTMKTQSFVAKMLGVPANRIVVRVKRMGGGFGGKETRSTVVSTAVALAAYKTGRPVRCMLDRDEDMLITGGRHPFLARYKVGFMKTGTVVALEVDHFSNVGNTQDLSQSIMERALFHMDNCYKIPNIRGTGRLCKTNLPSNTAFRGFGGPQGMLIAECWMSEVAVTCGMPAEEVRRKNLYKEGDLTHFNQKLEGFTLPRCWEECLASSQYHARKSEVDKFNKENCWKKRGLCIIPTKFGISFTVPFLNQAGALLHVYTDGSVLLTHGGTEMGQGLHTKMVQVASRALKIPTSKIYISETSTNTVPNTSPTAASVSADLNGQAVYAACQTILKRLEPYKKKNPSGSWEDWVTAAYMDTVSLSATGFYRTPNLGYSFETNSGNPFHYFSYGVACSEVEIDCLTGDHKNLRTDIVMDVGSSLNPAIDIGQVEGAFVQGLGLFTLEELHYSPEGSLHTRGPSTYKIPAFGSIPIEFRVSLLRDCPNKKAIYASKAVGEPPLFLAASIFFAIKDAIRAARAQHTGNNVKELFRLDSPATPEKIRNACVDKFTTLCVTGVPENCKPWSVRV
- assay.remarks: Inhibition of xanthine oxidase (unknown origin)
pIC50: −log10 of the molar value.
readout: pIC50

Exercise: Give the reported pIC50 for C/C=C1\CN2CC[C@@H]1[C@](CO)(C(=O)OC)c1[nH]c3ccccc3c1C2 (system: Xanthine dehydrogenase/oxidase (Homo sapiens, UniProt P47989)).
Key: < 4.00

* * *

- assay.remarks: Displacement of [3H]-naloxone from opiate receptor in rat cortical brain membrane assessed as inhibition constant incubated for 30 mins by liquid scintillation counter analysis
- Format: cell membranes
Below is a list of entries, each paired with its recorded Ki value.
The reply should be a number in nM, with the unit left off.

>>> measurement("CC[C@H]1[C@@H]2CCN3CC[C@@]4(C(=C2C(=O)OC)Nc2ccccc24)[C@@H]13")
1650

// below: Ki requested for another compound
Exercise: Using the record for C=C1c2[nH]c3ccccc3c2CN2CC[C@H]1/C(=C\C)C2 , report its Ki.
Key: 2650
